Biological target: T1, recombinant hAng-2 (C-His, R&D Systems) (human, UniProt O15123 19-496)
T1 construct: Bought protein; also called human Ang-2 protein; C-terminal histidine-tagged human Ang2 (R&D Systems); not shown: C-terminal His tag
T1 sequence: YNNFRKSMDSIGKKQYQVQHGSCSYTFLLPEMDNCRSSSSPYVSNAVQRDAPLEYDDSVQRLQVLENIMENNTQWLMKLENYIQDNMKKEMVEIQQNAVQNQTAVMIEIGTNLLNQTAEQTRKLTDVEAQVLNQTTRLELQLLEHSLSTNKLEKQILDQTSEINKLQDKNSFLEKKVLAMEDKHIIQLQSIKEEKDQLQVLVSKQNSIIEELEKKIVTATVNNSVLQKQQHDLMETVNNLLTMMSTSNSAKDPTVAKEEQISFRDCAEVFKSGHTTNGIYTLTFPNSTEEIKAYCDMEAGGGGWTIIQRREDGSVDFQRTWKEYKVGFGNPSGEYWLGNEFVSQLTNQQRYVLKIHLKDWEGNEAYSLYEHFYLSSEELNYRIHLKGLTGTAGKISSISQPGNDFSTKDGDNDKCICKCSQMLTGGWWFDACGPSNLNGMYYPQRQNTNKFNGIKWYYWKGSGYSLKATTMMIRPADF
Assay: SPR, BIAcore T100; hAng2 (C-His) captured by anti-His antibody on CM5, antibody as analyte
ATTRIBUTE_MEASURED: pKd
# pKd = -log10(concentration in molar units)

Consider the following illustrative entries.
• h10D6-OPTI-68 (antibody, human IgG1, V domains shown) VH: EVQLVESGGGLVQPGGSLRLSCAASGYSITSDYAWNWVRQAPGKGLEWMGKISYSGKTDYNPSLKSRSTISRDTSKNTFYLQMNSLRAEDTAVYYCARGNFEGAMDYWGQGTLVTVSS VL: DIQMTQSPSSLSASVGDRVTITCKASQFVSTDVHWYQQKPGKAPKLLIYYASNRYPGVPSRFSGSGSGTDFTLTISSLQPEDFATYYCQQDYSSPWTFGQGTKLEIK = 9.50
• h10D6-OPTI-70 (antibody, human IgG1, V domains shown) VH: EVQLVESGGGLVQPGGSLRLSCAASGYSITSDYAWNWVRQAPGKGLEWMGKISYSGKTDYNPSLKSRSTISRDTSKNTFYLQMNSLRAEDTAVYYCARGNFEGAMDYWGQGTLVTVSS VL: DIQMTQSPSSLSASVGDRVTITCKASQSVSNDVAWYQQKPGKAPKLLIYYASIPYPGVPSRFSGSGSGTDFTLTISSLQPEDFATYYCQQDYSSPWTFGQGTKLEIK = 9.36
• h10D6-OPTI-63 (antibody, human IgG1, V domains shown) VH: QVQLQESGPGLVKPSETLSLTCAVSGYSITSDYAWNWIRQPPGKGLEWMGKISYSGKTDYNPSLKSRSTISRDTSKNQFSLKLSSVTAADTAVYYCARGNFEGAMDYWGQGTLVTVSS VL: DIQMTQSPSSLSASVGDRVTITCKASQFVSTDVHWYQQKPGKAPKLLIYYASNRYPGVPSRFSGSGSGTDFTLTISSLQPEDFATYYCQQDYSSPWTFGQGTKLEIK = 10.56

Dear colleague, please send me the reported pKd for h10D6-OPTI-42 (antibody, human IgG1, V domains shown) VH: QVQLQESGPGLVKPSETLSLTCAVSGYSITSDYAWNWIRQPPGKGLEWIGYINYSGNTDYNPSLKSRVTISVDTSKNQFSLKLSSVTAADTAVYYCARGNFEGAMDYWGQGTLVTVSS VL: DIQMTQSPSSLSASVGDRVTITCKASQSVSNDVHWYQQKPGKAPKLLIYYASNRYPGVPSRFSGSGSGTDFTLTISSLQPEDFATYYCQHDYSSPFTFGQGTKLEIK when you can.
9.07

Dear colleague, please send me the reported pKd for h10D6-OPTI-16 (antibody, human IgG1, V domains shown) VH: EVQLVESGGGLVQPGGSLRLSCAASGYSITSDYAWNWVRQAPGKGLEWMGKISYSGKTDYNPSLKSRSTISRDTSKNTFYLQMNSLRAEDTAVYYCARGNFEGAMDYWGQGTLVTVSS VL: DIQMTQSPSSLSASVGDRVTITCKASQSVSNDVHWYQQKPGKAPKLLIYYASNRYPGVPSRFSGSGSGTDFTLTISSLQPEDFATYYCQQDYSSPWTFGQGTKLEIK when you can.
9.04

Provenance of the data: patent US20160053025A1
